- assay-comment: amyloid nucleation score (Sup35N fusion, yeast selection) (log enrichment); library NNK1; higher = more nucleation; inactive = no reads after selection;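 also: zero at mode of non-aggregating sequences after 7 days selection at 30°C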
Heads up, the class ranges for amyloid nucleation score are low: < 0.2; intermediate: ≥ 0.2 and < 1; high: ≥ 1

- input-sequence: "RQLTSVCYKSVDGE"
  cat: "intermediate"
- input-sequence: "TLVLSLAHPCASGNKPDKSG"
  cat: "intermediate"
- input-sequence: "HCTRINVHFYNIYTVLVSFS"
  cat: "high"
- input-sequence: "NYMSMWTV"
  cat: "intermediate"
- input-sequence: "PRVSRRPWLKGFNNVSNQQI"
  cat: "low"
- input-sequence: "TTVKYLWLYLGFVLGQGVNG"
  cat: "low"
- input-sequence: "LVFSRYYRCLFTIDF"
  cat: "high"
- input-sequence: "SNEVEGLFLKLYNFVPVRQW"
  cat: "low"
- input-sequence: "TKNSLGHNMLIDWGSCVGGC"
  cat: "high"
